tested on: ZR-75-1; assay: Growth inhibition of human ZR-75-1 cells after 48 hrs by SRB assay; type: functional; conditions: ZR-75-1, 48 h
readout.name: GI50
Remember to quote the unit after the number.

Solved cases below.
{"compound": "COc1cc2c(cc1OCCCCOc1ccc(-n3c(C)nc4ccccc4c3=O)cc1)N=C[C@@H]1CCCN1C2=O", "reported.value": "0.17 µM"}
{"compound": "COc1ccc(-n2c(C)nc3ccc(OCCCCCOc4cc5c(cc4OC)C(=O)N4CCC[C@H]4C=N5)cc3c2=O)cc1", "reported.value": "0.15 µM"}
{"compound": "COc1cc2c(cc1OCCCCOc1ccc(-n3c(/C=C/c4ccccc4)nc4ccccc4c3=O)cc1)N=C[C@@H]1CCCN1C2=O", "reported.value": "0.16 µM"}
{"compound": "COc1cc2c(cc1OCCCOc1ccc(-n3c(C)nc4ccccc4c3=O)cc1)N=C[C@@H]1CCCN1C2=O", "reported.value": "0.15 µM"}
{"compound": "COc1cc2c(cc1OCCCOc1ccc(-n3c(/C=C/c4ccccc4)nc4ccccc4c3=O)cc1)N=C[C@@H]1CCCN1C2=O", "reported.value": "0.16 µM"}

q: Identify GI50 associated with the molecule COc1cc2c(cc1OCCCCCOc1ccc3nc(C)n(-c4ccc(F)cc4)c(=O)c3c1)N=C[C@@H]1CCCN1C2=O
a: 0.16 µM

q: Identify GI50 associated with the molecule COc1cc2c(cc1OCCCCCOc1ccc3nc(C)n(-c4ccc(F)c(Cl)c4)c(=O)c3c1)N=C[C@@H]1CCCN1C2=O
a: 0.15 µM

q: Identify GI50 associated with the molecule COc1cc2c(cc1OCCCCOc1ccc3nc(C)n(-c4ccc(Cl)cc4Cl)c(=O)c3c1)N=C[C@@H]1CCCN1C2=O
a: 0.17 µM

q: Identify GI50 associated with the molecule COc1cc2c(cc1OCCCCCOc1ccc3nc(C)n(-c4ccc(I)cc4C)c(=O)c3c1)N=C[C@@H]1CCCN1C2=O
a: 0.16 µM

q: Identify GI50 associated with the molecule COc1cc2c(cc1OCCCCCOc1ccc(-n3c(/C=C/c4ccccc4)nc4ccccc4c3=O)cc1)N=C[C@@H]1CCCN1C2=O
a: 0.15 µM

q: Identify GI50 associated with the molecule COc1cc2c(cc1OCCCCOc1ccc3nc(C)n(-c4ccc(I)cc4C)c(=O)c3c1)N=C[C@@H]1CCCN1C2=O
a: 0.16 µM
